Data origin, for the record: paper PMC10880909

biological target: hTET2 (Homo sapiens, UniProt Q6N021); assay: MALDI-based inhibition assay of hTET2
pIC50: −log10 of the molar value.
reported.metric: pIC50

Illustrative cases are given below, each with its answer.
Oc1cc2c(cc1O)CNCC2 [Compound 21, tetrahydroisoquinoline-6,7-diol]	5.07
O=S(=O)(O)c1ccc(O)c2ncccc12	4.92
O=C(O)c1ncccc1O [Compound 22, 3-hydroxypicolinic acid]	4.31

# return pIC50 for each item in the list
1. O=C(O)c1ccc(F)c2ncccc12
2. O=S(=O)(Nc1cccc(O)c1)c1ccc(F)c2ncc(I)cc12
3. O=S(=O)(NCc1ccccc1)c1ccc(F)c2ncc(I)cc12
4. NS(=O)(=O)c1ccc(F)c2ncc(I)cc12
5. O=S(=O)(c1ccc(F)c2ncc(I)cc12)N1CCCC1

**A:**
["< 3.70", "< 3.70", "< 3.70", "< 3.70", "< 3.70"]
